study-system: human ether-à-go-go-related gene (hERG) potassium channel (human, UniProt Q12809);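 note: peak tail current of the secondary pulse compared with the same well before compound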
Sequence (Q12809 whole entry, looked up): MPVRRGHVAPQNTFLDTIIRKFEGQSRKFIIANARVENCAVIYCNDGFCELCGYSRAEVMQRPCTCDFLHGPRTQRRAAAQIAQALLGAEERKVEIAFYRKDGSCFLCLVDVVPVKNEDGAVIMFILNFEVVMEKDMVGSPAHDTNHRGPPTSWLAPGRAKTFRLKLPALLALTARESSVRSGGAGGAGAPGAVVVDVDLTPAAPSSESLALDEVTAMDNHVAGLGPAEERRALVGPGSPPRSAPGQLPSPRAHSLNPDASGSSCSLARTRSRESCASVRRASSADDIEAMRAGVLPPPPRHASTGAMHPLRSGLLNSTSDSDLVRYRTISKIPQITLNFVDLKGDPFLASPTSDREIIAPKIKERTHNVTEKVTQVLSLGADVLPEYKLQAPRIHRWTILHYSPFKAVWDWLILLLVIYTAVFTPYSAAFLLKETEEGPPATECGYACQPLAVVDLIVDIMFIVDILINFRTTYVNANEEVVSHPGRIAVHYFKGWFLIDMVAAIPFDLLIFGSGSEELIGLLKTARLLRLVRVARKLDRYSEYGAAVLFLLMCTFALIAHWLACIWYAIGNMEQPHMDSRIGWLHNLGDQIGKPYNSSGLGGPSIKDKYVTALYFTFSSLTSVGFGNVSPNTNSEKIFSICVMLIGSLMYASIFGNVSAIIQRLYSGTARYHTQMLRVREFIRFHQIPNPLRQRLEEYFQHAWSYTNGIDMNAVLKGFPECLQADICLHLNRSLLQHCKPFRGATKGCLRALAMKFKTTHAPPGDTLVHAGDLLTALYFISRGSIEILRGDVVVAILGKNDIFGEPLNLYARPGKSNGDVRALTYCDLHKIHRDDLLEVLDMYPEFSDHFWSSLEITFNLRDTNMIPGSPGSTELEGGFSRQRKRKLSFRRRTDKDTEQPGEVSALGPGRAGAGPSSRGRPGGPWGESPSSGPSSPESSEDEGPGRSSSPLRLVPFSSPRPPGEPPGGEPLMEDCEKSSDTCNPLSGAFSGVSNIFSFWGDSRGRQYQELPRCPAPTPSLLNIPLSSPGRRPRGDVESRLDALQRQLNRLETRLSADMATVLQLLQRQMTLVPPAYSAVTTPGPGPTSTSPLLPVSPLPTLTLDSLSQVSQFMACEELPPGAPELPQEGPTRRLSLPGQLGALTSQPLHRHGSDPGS
assay-method-text: primary screen, population patch clamp on CHO cells stably expressing hERG; higher = less effect of the substance
Among all 310,000 compounds or so, about 14,000 (4.5%) showed an effect of 50% or more. The effect is printed as a negative number. The sample holds strong results, similar compounds and a random draw of the others, so the mix is not that of the screen.
quantity-name: hERG current change (%, negative = inhibition) at 10uM
Number first, unit second: that is the form wanted.

Example entries begin here.
compound	test-result
CC(=O)N1N=C(c2ccc([N+](=O)[O-])cc2)CC1c1ccccc1Cl (stereo not shown)	-66%
Cc1ccccc1OCC(=O)Nc1cc(Cl)ccc1Oc1ccccc1	0.121%
COc1ccc(-n2cnnc2SCC(=O)Nc2cccnc2Cl)cc1	-18.7%
COc1ccc(C(=S)N2CCN(c3cccc(Cl)c3)CC2)c(OC)c1	3.25%
CC(=O)N1N=C(c2ccc(Cl)cc2)CC1c1ccc([N+](=O)[O-])cc1 (stereo not shown)	11.8%
O=C(CCC(=O)c1ccc(Br)cc1)Nc1ccc(F)cc1	23.7%
CC(=O)N1N=C(c2ccccc2)CC1c1ccccc1[N+](=O)[O-] (stereo not shown)	2.95%
CSCCC(NC(=O)COc1ccccc1)C(=O)OCC(=O)c1cc2ccccc2o1 (stereo not shown)	8.62%
COc1cc(Cl)c(C)cc1NC(=O)COC(=O)c1cc(SC)ccc1Cl	8.99%

API: the following record is the query input.
Field request: hERG current change (%, negative = inhibition) at 10uM | item: CCCCN(C(=O)c1ccc2c(c1)OCO2)c1c(N)n(CC(C)C)c(=O)[nH]c1=O -6.58%

----------
study-system: human ether-à-go-go-related gene (hERG) potassium channel (human);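 note: peak tail current of the secondary pulse compared with the same well before compound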
assay-method-text: primary screen, population patch clamp on CHO cells stably expressing hERG; higher = less effect of the substance
Description: Briefly, Chinese hamster ovary (CHO) cells stably expressing the hERG channel were dislodged from tissue culture flasks and dispensed into PPC plates. […] During the recording, background leak currents were estimated by a 100 ms step to -80 mV from an initial holding potential of -70 mV and subtracted from the subsequent current measurement. The campaign was conducted in two phases using slight differences in recording protocol. […]
The campaign covered roughly 310,000 compounds. About 14,000 (4.5%) showed an effect of 50% or more. The effect is printed as a negative number. This is one part of a sample in which strong results are shown more often than they occur.
Classify as follows. Reported hERG current change (%, negative = inhibition) at 10uM greater than or equal to -10%: Satisfied. Reported hERG current change (%, negative = inhibition) at 10uM below: Not satisfied.

Previously resolved entries follow.
molecule	study-system	class-assignment
C=CCN1C(=O)C(CC(=O)Nc2ccc(OCCC)cc2)N(CCCN2CCN(Cc3ccccc3)CC2)C1=S (stereo not drawn)	human ether-à-go-go-related gene (hERG) potassium channel (human)	Not satisfied
Nc1nc(N2CCCCC2)nc(N2CCCCC2)n1	human ether-à-go-go-related gene (hERG) potassium channel (human)	Not satisfied
CCN1C(=O)C(CC(=O)Nc2ccc(OC)cc2)N(CCN2CCOCC2)C1=S (stereo not drawn)	human ether-à-go-go-related gene (hERG) potassium channel (human)	Satisfied
COc1ccccc1C(=O)NCCC(=O)NCC(c1ccccc1OC)N1CCCC1 (stereo not drawn)	human ether-à-go-go-related gene (hERG) potassium channel (human)	Satisfied
CCCCn1nc(C(=O)Nc2cccc(C(=O)NC3CC3)c2)c2ccccc2c1=O	human ether-à-go-go-related gene (hERG) potassium channel (human)	Not satisfied
CCN1C(=O)C(CC(=O)Nc2ccc(OC)cc2)N(CCCN2CCN(c3ccc(F)cc3)CC2)C1=S (stereo not drawn)	human ether-à-go-go-related gene (hERG) potassium channel (human)	Not satisfied
Cn1nc(C(=O)OCC(=O)NCCc2ccccc2)c2ccccc2c1=O	human ether-à-go-go-related gene (hERG) potassium channel (human)	Satisfied
CCCN1CNC(=S)N(c2cccc(C)c2)C1	human ether-à-go-go-related gene (hERG) potassium channel (human)	Satisfied
Cc1nn(C)c(C)c1S(=O)(=O)NC1CCCC1	human ether-à-go-go-related gene (hERG) potassium channel (human)	Not satisfied
COc1ccc(N2C(=O)CC(NNC(=O)c3cc(C)oc3C)C2=O)cc1 (stereo not drawn)	human ether-à-go-go-related gene (hERG) potassium channel (human)	Satisfied

# check: hERG current change (%, negative = inhibition) at 10uM of CCOP(=O)(OCC)C(NC(=O)Nc1cccc(Cl)c1)c1ccccc1 (stereo not drawn) is greater than or equal to -10% Satisfied

# check: hERG current change (%, negative = inhibition) at 10uM of Cc1nc2ccc(NC(=O)c3nn(CC(C)C)c(=O)c4ccccc34)cc2s1 is greater than or equal to -10% Not satisfied

# check: hERG current change (%, negative = inhibition) at 10uM of Cc1ccc2c(c1)C(O)(CC(=O)c1ccc(C)s1)C(=O)N2 (stereo not drawn) is greater than or equal to -10% Satisfied

# check: hERG current change (%, negative = inhibition) at 10uM of Nc1nc(N2CCCCC2)nc(N(c2ccccc2)c2ccccc2)n1 is greater than or equal to -10% Satisfied

# check: hERG current change (%, negative = inhibition) at 10uM of CCOC(=O)CNC(=O)c1ccc(Br)s1 is greater than or equal to -10% Satisfied

# check: hERG current change (%, negative = inhibition) at 10uM of CC(C)(C)NC(=O)C(OC(=O)c1cccs1)c1ccccc1 (stereo not drawn) is greater than or equal to -10% Satisfied

# check: hERG current change (%, negative = inhibition) at 10uM of CCN1C(=O)C(CC(=O)Nc2ccc(F)cc2)N(CCCN2CCN(c3ccc(F)cc3)CC2)C1=S (stereo not drawn) is greater than or equal to -10% Not satisfied

# check: hERG current change (%, negative = inhibition) at 10uM of C1CCN(c2nc(N3CCCCC3)nc(N3CCNCC3)n2)CC1 is greater than or equal to -10% Satisfied

# check: hERG current change (%, negative = inhibition) at 10uM of CCN1C(=O)C(CC(=O)Nc2ccc(OC)cc2)N(CCc2ccc(F)cc2)C1=S (stereo not drawn) is greater than or equal to -10% Satisfied

# check: hERG current change (%, negative = inhibition) at 10uM of CCOC(=O)c1sc(NC(=O)CSc2nccc(C)n2)c(C#N)c1C is greater than or equal to -10% Satisfied

----------
study-system: human ether-à-go-go-related gene (hERG) potassium channel (human, UniProt Q12809);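 note: peak tail current of the secondary pulse compared with the same well before compound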
assay-method-text: primary screen, population patch clamp on CHO cells stably expressing hERG; higher = less effect of the substance
Among all 310,000 compounds or so, about 14,000 (4.5%) showed an effect of 50% or more. The effect is printed as a negative number. For the sample, strong results were picked, then their nearest neighbours and some compounds at random.
quantity-name: hERG current change (%, negative = inhibition) at 10uM (%)
I only need the number, in %, no unit after it.

Example entries begin here.
compound	test-result
CC(C)c1cc(-c2cc(-c3ccc(Cl)cc3)on2)nc(NC2CCCC2)n1	13.3
O=C(O)C(=O)O.c1ccc(Cc2ccc(OCCCNC3CCCC3)cc2)cc1	-58.9
CC(CSc1nnnn1-c1ccccc1)Cn1c(N2CCCC2)nc2c1c(=O)[nH]c(=O)n2C (centres unmarked)	-45.1
C=CCNCCCCOc1ccc(OCc2ccccc2)cc1.O=C(O)C(=O)O	-42.1

Field request: hERG current change (%, negative = inhibition) at 10uM | item: Cn1c(=O)[nH]c(=O)c2c1nc(N1CCCC1)n2CCCSc1nnnn1-c1ccccc1 -13.5

Field request: hERG current change (%, negative = inhibition) at 10uM | item: CCOc1cccc(OCCNC2CCCC2)c1.O=C(O)C(=O)O 5.28

Field request: hERG current change (%, negative = inhibition) at 10uM | item: CSc1ncc(F)c(N(CCO)CCO)n1 10.5

Field request: hERG current change (%, negative = inhibition) at 10uM | item: COc1ccc(OC)c2[nH]c(=O)c(CCNC(=O)c3ccc4c(c3)OCO4)cc12 -10.2

Field request: hERG current change (%, negative = inhibition) at 10uM | item: CN1CCN(c2nc3c(c(=O)[nH]c(=O)n3C)n2CCSc2nnnn2-c2ccccc2)CC1 -17

Field request: hERG current change (%, negative = inhibition) at 10uM | item: O=C(c1ccncc1)N1CCN(S(=O)(=O)c2ccc(F)cc2)CC1 15.2

----------
study-system: human ether-à-go-go-related gene (hERG) potassium channel (human);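 note: peak tail current of the secondary pulse compared with the same well before compound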
assay-method-text: primary screen, population patch clamp on CHO cells stably expressing hERG; higher = less effect of the substance
About 14,000 (4.5%) of roughly 310,000 compounds showed an effect of 50% or more. Effects have a minus sign here. The full list was thinned out, with strong results kept by preference.
The entries below are paired with their reported hERG current change (%, negative = inhibition) at 10uM.
I only need the number, in %, no unit after it.

Example entries begin here.
molecule	test-result
OCC1(Cc2cccc(C(F)(F)F)c2)CCN(Cc2cc(F)cc(F)c2)CC1	-43.4
Cc1ccc(-c2c3c(=O)n(C)c(=O)n(C)c3cn2N2CCOCC2)cc1	-40
COc1ccc(-n2c(=O)c(NC(=O)c3ccccc3)c3n(c2=S)CCCCC3)cc1	-3.03
FC(F)(F)c1cccc(CN2CCCCCC2)c1	2.33
Cc1c(CN2CCC(CO)(Cc3cccc(C(F)(F)F)c3)CC2)c2ccccc2n1C	-47.2
CNC(=O)COc1coc(CN2CCN(Cc3ccccc3)CC2)cc1=O	1.83
COc1ccc(C)cc1NC(=O)C1CCN(C(=O)C2CC(=O)N(c3ccc(C)cc3)C2)CC1 (stereo not shown)	-23.1
Cn1c(=O)c2c(-c3ccc(C(C)(C)C)cc3)n(N3CCOCC3)cc2n(C)c1=O	-26.7
COc1ccc(CCNC(=O)C2CCN(C(=O)c3cccc(Cl)c3)CC2)cc1OC	11.5
CC(=O)c1ccc(NC(=O)C2CCCN(c3ncnc4c3nc3n4CCCCC3)C2)cc1 (stereo not shown)	-24.1

Field request: hERG current change (%, negative = inhibition) at 10uM | item: COc1ccc(NP(=O)(Oc2ccc(Cl)cc2)Oc2ccc(Cl)cc2)cc1OC -16.6

Field request: hERG current change (%, negative = inhibition) at 10uM | item: CCOc1ccc(NC(=O)CN(C)C(=O)Cn2cnc3c2c(=O)n(C)c(=O)n3C)cc1OCC 5.62

Field request: hERG current change (%, negative = inhibition) at 10uM | item: CCCN(CCC)CCCNC(=S)Nc1ccc2nc(N3CCN(C)CC3)cc(C)c2c1 8.86

Field request: hERG current change (%, negative = inhibition) at 10uM | item: CCOc1cc(CN2CCCCCC2)ccc1OC -3.28

Field request: hERG current change (%, negative = inhibition) at 10uM | item: CC(C)n1nc(C(=O)Nc2ccc3c(c2)OCO3)c2ccccc2c1=O 11

Field request: hERG current change (%, negative = inhibition) at 10uM | item: COc1ccc(-c2c3c(=O)n(C)c(=O)n(C)c3cn2N2CCOCC2)cc1 -52.3

Field request: hERG current change (%, negative = inhibition) at 10uM | item: COc1ccc(CCNC(=O)C2CCN(Cc3nc(-c4cccc(Cl)c4)oc3C)CC2)cc1OC -85.2

Field request: hERG current change (%, negative = inhibition) at 10uM | item: CCOc1cc(CN2CCN(C(=O)Cc3ccccc3)CC2)ccc1OC.O=C(O)C(=O)O -37.6

Field request: hERG current change (%, negative = inhibition) at 10uM | item: O=C(Nc1ccc(Cl)cc1)C1CCCN(c2ncnc3c2nc2n3CCCCC2)C1 (stereo not shown) -50.1
